- Experiment: AUC (0 to infinity) in beagle dog at 1 mg/kg, po
- Type: ADME, organism-based, Canis lupus familiaris
- Set-up: dose 1 mg/kg, route oral, time infinity
- Test settings: plasma
Measurement label: AUC(0-inf) (ng·h/mL)
Just the number please, in ng·h/mL, no unit attached.

Need AUC(0-inf), item `CC(C)(C)n1cc2c(n1)C(=O)C(C)(C)C1(CCN(C(=O)c3ccc4[nH]ncc4c3)CC1)O2`
321
